tested on: LOC_OS01G13800-cb001; experiment: thermal shift delta Tm vs DMSO control; higher = stronger stabilization (binding); conditions: 12.5 µM; protein concentration 2 µM;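 note: purified Escherichia coli-expressed rice kinase domain construct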
Where a name gives a salt, the structure may show the parent alone.
recorded_endpoint: thermal shift delta Tm (°C)
The reply should be a number in °C, with the unit left off.

(Q) What is its thermal shift delta Tm for LOC_OS01G13800-cb001? Entry: CO[C@@H](C)Cn1c(=O)n(C)c2cnc3ccc(-c4cncc(C(C)(C)O)c4)cc3c21
(A) 0.76

(Q) # iterate: Cc1cc(F)c(Nc2ncnc3cc(OCc4ccccc4)ccc23)cc1O
(A) 0.61

(Q) What do we get for CN1CCN(c2ccc(OC(F)(F)F)c(Nc3ncc4c(n3)-c3c(c(C(N)=O)nn3CCO)CC4)c2)CC1 ?
(A) -0.54

(Q) Also, CNC(=O)c1cc(COc2nnc(Nc3ccc(Cl)cc3)c3ccoc23)ccn1 please.
(A) 0.36

(Q) Also, CC(C)CCN1c2nc(Nc3cc(F)c(O)c(F)c3)ncc2N(C)C(=O)C1C (configuration not stated) please.
(A) 0.08

(Q) CCn1c(=O)c(-c2ccc(Cl)cc2Cl)cc2cnc(Nc3ccc(N4CCNCC4)c(F)c3)nc21 , same question.
(A) 0.11

(Q) Now the compound O=c1ccc2ccc(O)c(O)c2o1
(A) 0.62

(Q) Also Nc1cccc(-c2cc3c(Oc4cccc(O)c4)ncnc3[nH]2)c1 , if possible.
(A) 0.59

(Q) Same lookup for Cc1cc(O)c(-c2ccc([C@@H](C)CN)cc2)c2c1[nH]c(=O)c1sccc12 [OTS514 hydrochloride] , please.
(A) 0.58

(Q) What do you have for Nc1cc(C(F)(F)F)c(-c2cc(N3CCOCC3)nc(N3CCOCC3)n2)cn1 ?
(A) 0.04

(Q) What about CN1CCN(c2ccc(C(=O)Nc3n[nH]c4ccc(Cc5cc(F)cc(F)c5)cc34)c(NC3CCOCC3)c2)CC1 [Entrectinib (RXDX-101)] ?
(A) -0.49

(Q) For CCN1CCN(Cc2ccc(-c3cc4c(N[C@H](C)c5ccccc5)ncnc4[nH]3)cc2)CC1 then?
(A) 0.28

* * *

tested on: LOC_OS05G07850-cb002; assay: thermal shift delta Tm vs DMSO control; higher = stronger stabilization (binding); details: 12.5 µM; protein concentration 2 µM
recorded_endpoint: thermal shift delta Tm (°C)
Supply the numeric figure in °C, leaving out any unit text.

(Q) Tell me reported thermal shift delta Tm for C[C@@H](Oc1cc(-n2cnc3ccc(CN4CCN(C)CC4)cc32)sc1C(N)=O)c1ccccc1C(F)(F)F , tested with LOC_OS05G07850-cb002.
(A) 2.4

(Q) Please answer likewise for COc1ccc(C(=O)Nc2sc3c(c2C(N)=O)CCCC3)cc1OC
(A) 5.8

(Q) What do you have for CN(c1ccccc1CNc1nc(Nc2ccc3c(c2)CC(=O)N3)ncc1C(F)(F)F)S(C)(=O)=O ?
(A) 11.3

(Q) Consider next the compound CCOc1cc(C(=O)N2CCC(N3CCN(C)CC3)CC2)ccc1Nc1ncc2c(n1)N(C1CCCC1)c1ccccc1C(=O)N2C in the same way.
(A) 1.11

(Q) Then what about the compound COc1cc2ncnc(Nc3ccc(F)c(Cl)c3)c2cc1OCCCN1CCOCC1 [Gefitinib (ZD1839)] ?
(A) 9.4

(Q) Follow-up item: Cc1cccc(CC(=O)N2CCc3c2ccc(-c2cn(C)c4ncnc(N)c24)c3F)n1
(A) 2.24

(Q) Then Nc1nccc(Oc2ccc(NC(=O)c3c[nH]cc(-c4ccc(F)cc4)c3=O)cc2F)c1Cl ?
(A) 14.9

(Q) Same for COc1cc(F)c(F)c(Nc2ccc(I)cc2F)c1NS(=O)(=O)C1(C[C@H](O)CO)CC1 [Refametinib (RDEA119, Bay 86-9766)]
(A) 0.16

(Q) Next record, please: Nc1ncnc2n[nH]c(Nc3ccc(F)cc3)c12
(A) 8.51

(Q) Same question for Cn1nccc1Nc1nccc(-c2ccn([C@H](CO)c3ccc(Cl)c(F)c3)c(=O)c2)n1 please.
(A) 2.78

(Q) # repeat for C1=N/C2=N/c3ccc(OCCN4CCCC4)c(c3)COC/C=C/COCc3cccc(c3)C(=C1)N2 [Pacritinib (SB1518)]
(A) 12.8

(Q) Repeat with CNC(=O)c1cc(Oc2ccc(NC(=O)Nc3cc(C(C)(C)C)nn3-c3ccc4ncccc4c3)c(F)c2)ccn1 [Rebastinib (DCC-2036)]
(A) 14.3

(Q) Follow-up item: O=c1sn(-c2cccc3ccccc23)c(=O)n1Cc1ccccc1 [Tideglusib]
(A) -3.79

(Q) Please give the result for CCOc1cc(N2CCC(O)CC2)ccc1Nc1ncc2c(n1)N(C)c1ccccc1C(=O)N2C too.
(A) 1.85

(Q) Same again, this time with Cc1cc(Nc2nc(N[C@@H](C)c3ncc(F)cn3)ncc2Cl)[nH]n1
(A) 10.9

(Q) Could you do the same for C=CC(=O)Nc1ccc2ncnc(Nc3cccc(Br)c3)c2c1 , please?
(A) 0.86

(Q) Same lookup for O=C(c1cccc(Cl)c1F)N1CCN(Cc2cccc(Nc3nccs3)n2)CC1 , please.
(A) 7.36

(Q) Can you check CC1(C)C=Cc2c(ccc3c2OC[C@@H](c2ccc(O)cc2O)C3)O1 [Glabridin] next?
(A) 1.39

(Q) Same question, CC(C)(CO)n1cc(C(=O)c2cncc(NC(=O)Cc3ccc(Cl)cn3)c2)c2cnc(N)nc21 this time
(A) 5.09

(Q) Again, but for Cc1nc(NC(=O)N2CCC[C@H]2C(N)=O)sc1-c1ccnc(C(C)(C)C(F)(F)F)c1 [Alpelisib (BYL719)]
(A) 7.19

(Q) Try this compound too: Cc1cc(Nc2cc(N)ncn2)c(=O)n2c1C(=O)NC21CCCCC1
(A) 5.64

(Q) Moving on to Nc1nc(N)c2nc(-c3cccc(O)c3)c(-c3cccc(O)c3)nc2n1
(A) 5.27

(Q) // query: CC1Oc2cc(cnc2N)-c2c(nn(C)c2C#N)CN(C)C(=O)c2ccc(F)cc21 (stereo not drawn)
(A) 2.16

* * *

Kindly state thermal shift delta Tm for each of the entries shown.
system: LOC_OS02G14120-cb001; assay: thermal shift delta Tm vs DMSO control; higher = stronger stabilization (binding); settings: 12.5 µM; protein concentration 2 µM
Give just the numeric value; °C need not be written.

(Q) For N#Cc1cnc(Nc2cc(NC[C@H]3CNCCO3)c(C(F)(F)F)cn2)cn1 , what is its reported thermal shift delta Tm?
(A) 2.96

(Q) Same thing, different molecule: CN1CCN(c2ccc3nc(-c4c(N)c5c(F)cccc5[nH]c4=O)[nH]c3c2)CC1 [Dovitinib (TKI-258) Dilactic Acid]
(A) 6.88

(Q) Then Fc1ccc2[nH]ccc2c1-c1nc(N2CCOCC2)c2sc(CN3CCN(CC4CC4)CC3)cc2n1 ?
(A) 0.72

* * *

tested on: LOC_OS02G17970-cb001; experiment: thermal shift delta Tm vs DMSO control; higher = stronger stabilization (binding); conditions: 12.5 µM; protein concentration 2 µM
Would you kindly list thermal shift delta Tm for each of these molecules?
Response body: numeric value in °C, unit text excluded.

(Q) Requested field: thermal shift delta Tm. Item: COc1cc2ncnc(Oc3cccc(NC(=O)Nc4cc(C(C)(C)C(F)(F)F)on4)c3)c2cc1OC
(A) 0.45

(Q) Field entry: C=CC(=O)N1CC[C@@H](Oc2nc(Nc3ccc(N4CCC(N5CCN(C)CC5)CC4)cc3)c(C(N)=O)nc2CC)C1 [Naquotinib(ASP8273)]
(A) 0.57

(Q) Same again, this time with COc1cc(N2CCC(N3CCN(C)CC3)CC2)ccc1Nc1ncnc(Nc2ccccc2S(=O)(=O)C(C)C)n1
(A) 0.11

(Q) Try this molecule next: CN1CC(O)C2=C/C(=N/NC(N)=O)C(=O)C=C21 (centres undefined) [Carbazochrome]
(A) -0.48

* * *

test system: LOC_OS01G21960-cb002; assay: thermal shift delta Tm vs DMSO control; higher = stronger stabilization (binding); details: 12.5 µM; protein concentration 2 µM
Where a name gives a salt, the structure may show the parent alone.
Labels assigned by thermal shift delta Tm range: band A: < 0.4 °C; band B: ≥ 0.4 °C and < 2 °C; band C: ≥ 2 °C

(Q) Which band does O=c1cc(-c2cccc3c2Sc2ccccc2S3)oc(N2CCOCC2)c1 fall in?
(A) band B

(Q) What about this molecule? O=c1cc(-c2ccccc2)oc2c(O)c(O)ccc12 [7,8-Dihydroxyflavone]
(A) band C

(Q) Please answer likewise for COc1cc(N2CCN(C)CC2)ccc1Nc1ncc2c(n1)N(C)c1ccccc1C(=O)N2
(A) band B

(Q) // repeat for Cc1cc(Nc2cc(Cl)nc(Oc3ccc([N+](=O)[O-])cc3)n2)n[nH]1 and report
(A) band B

(Q) Same lookup for Cc1ccc(C(=O)Nc2cccc(C(F)(F)F)c2)cc1Nc1nc(-c2cccnc2)nc2c1cnn2C , please.
(A) band C

(Q) Follow-up entry: Cn1cc(-c2ccc3nnc(Sc4ccc5ncccc5c4)n3n2)cn1
(A) band A

(Q) Same read-out for C[C@H](NC(=O)/C(C#N)=C/c1cccc(Br)n1)c1ccccc1 ?
(A) band A

(Q) Now try Cn1cc(-c2ccc(F)c(C(F)(F)F)c2)nc1C1CCN(c2ncnc3[nH]ncc23)CC1 .
(A) band B

(Q) Follow-up entry: O=C1NC(=O)/C(=C/c2ccc(-c3ccc(F)cc3O)o2)S1
(A) band C

(Q) What do you have for CN(C)C/C=C/C(=O)Nc1cc2c(Nc3ccc(F)c(Cl)c3)ncnc2cc1O[C@H]1CCOC1 [Afatinib (BIBW2992)] ?
(A) band A

(Q) One more molecule: N#Cc1c(Oc2ccc(F)c(NC(=O)Cc3cccc(C(F)(F)F)c3)c2)ccc2nc(NC(=O)C3CC3)sc12
(A) band B

(Q) Query CN1CC[C@H](c2c(O)cc(O)c3c(=O)cc(-c4ccccc4Cl)oc23)[C@H](O)C1 [Flavopiridol HCl] next
(A) band B

Origin of the recorded values: the supplement of paper PMC9694430
